- TEST_SUMMARY: yeast display, Sf9 membrane polyspecificity reagent, FACS + sequencing; frameworks hold sequencing errors
TEST_READOUT: polyreactivity (PSR sort gate)

Completed entries (count: 4):
[[record]]
residues = "QVQLVESRGGLVQAGGSLRLSCADSGRIFWYYDMGCYRQAPWKDRELVAAITSGGRTYYADYVKGRFTISRDNAKNTVYLQMNSLKPEDTAVYYCAAEGFYTSGSPYSGGLDYWGQGTQVTVSS"
value = "low polyreactivity"

[[record]]
residues = "QVQLVESGGGLVQAGGSLRLSCAASGRIFYGYAMGWYRQAPGKERELVAAISWRGDSTYYADSVKGRFTISRDNAKNTVYLQMNSLKPEDTAVYYCAARRPGYYYPSKFDYWGQGTQVTVSS"
value = "high polyreactivity"

[[record]]
residues = "QVQLVESGGGLFQAGGSLRLSCAASGRIFGNNTMGWYRQAPGKERELVAAINSGGRTYYADSVKGRFTISRDNAKYTVYLQMNSLKTEDTAVYYCATTTYKRFYRAPTSKYDYWGQGTLVTVSS"
value = "high polyreactivity"

[[record]]
residues = "QVQLVESGGGLVQAGGSLRLSCAASGSIFYGYAMGWYRQAPGKERELVAAITDVGSTNYADSVKGRFTISRDNAKNTVYLQMNSLKPEDTAVYYCAADNYRRSSVDPFTDTMGYWGQGTQVTVSS"
value = "low polyreactivity"


Note polyreactivity (PSR sort gate) for the sequence shown: QVQLVESGGGLVQAGGSLRLSCAASGRTFPLYAMGWYRQAPGKERELVASITTDSSTYYADSVKGLFTISRDNAKYTVYLQMNSLKPEDTAVYYCAATTIPYPYTEFDYWGQGTQVTVSS
low polyreactivity

Note polyreactivity (PSR sort gate) for the sequence shown: QVQLVESGGGLVQAGGSLRLSCAPSGITFRYYAMGWYRQAPGKERELVAAITRSGSTTYADSVKGRFTISRDNAKNTVYLQMNSLKPEVTAVYYCAVDYYYLTGGVDYWGQGTQVTVSS
low polyreactivity

Note polyreactivity (PSR sort gate) for the sequence shown: QVQLVESGGGLVQAGGSLRLSWAASGSTFNVYAMGWYRQAPGKERELVAGIRDSDGSTNYADSVKGRFTISRDNAKNTVYLQMNSLKPEDTAVYYCAADLYDINWSVWLDYWGQGTQVTVSS
low polyreactivity

###

- TEST_SUMMARY: yeast display, Sf9 membrane polyspecificity reagent, FACS + sequencing; frameworks hold sequencing errors
TEST_READOUT: polyreactivity (PSR sort gate)

Completed entries (count: 4):
[[record]]
residues = "QVQLVESGGGLVQAGGSLRLSCASSGFIFRGYAMGWYRQAPGKERELVAVISRSGTSTYYADSVKGRFTISRDNAKITVYLQMNSLKPEDTAVYYCAKEVWPRYIRQAYLSGYESWGQGTQVTVSS"
test_readout = "polyreactivity (PSR sort gate)"
value = "high polyreactivity"

[[record]]
residues = "QVQLVESGGGLVQAGGSLRLSCAASGSTFYRYAMGWYRQAPGKERELVAAISSSGGSTYYADSVKGRFTISRDNAKNTVYLQMNSLKPEDTAVYYCNAALTPYDYDYWGQGTQVTVSS"
test_readout = "polyreactivity (PSR sort gate)"
value = "low polyreactivity"

[[record]]
residues = "QYQLVESGGGLVQAGGSLRLSCAASGFIFSTNAMGWYRQAPGKERELVAAISRRGGNTYYADSLKGRFTISRDNAKNTVYLQMNSLKPEDTAVYYCAKRGVYGYRYYYWGQGTQVTVSS"
test_readout = "polyreactivity (PSR sort gate)"
value = "high polyreactivity"

[[record]]
residues = "QVQLVESGGGLVQAGGSLRLSCAASGSTFYDYAMGWYRQAPGKERVLVAAISTSGGSTYADSVYGRFTISRDNAKNTVYLQMNSLKPEDTAVYYCNADDPGYAVPWYWFKYDYWGQGTQVTVSS"
test_readout = "polyreactivity (PSR sort gate)"
value = "low polyreactivity"


Could you now consider this next sequence?
Note polyreactivity (PSR sort gate) for the sequence shown: QVQLVESGGGLVQAGGSLRLSCAASGSIFHWYAMGWYRQAPGKERELVAAINWSGGSTYYADSVKGRFTISRDNAKNTVYLQMNSLKPEDTAVYYCNKAYVSRYDYWGQGTQVTVSS
high polyreactivity

###

- TEST_SUMMARY: yeast display, Sf9 membrane polyspecificity reagent, FACS + sequencing; frameworks hold sequencing errors
TEST_READOUT: polyreactivity (PSR sort gate)

Completed entries (count: 10):
[[record]]
residues = "QVQLVESGGGLVQAGGSLRLSCAASRLTFSYYAMGWYRQAPGKERELVAAISERGGSTYYADSVKGRFTISRDNAKNTVYLQMNSLKPEDTAVYYCAADFVYGTRDDSWGQGTQVTVSS"
value = "high polyreactivity"

[[record]]
residues = "QVQLVESGGGLVQAGGSLRLSCAASGFNFRFYAMGWYRQAPGKERELVAVITWSGGRTYYADSVKGRFTISRDNAKNTVYLQMNSLKPEDTAVYYCAAKRGKTYQRFDYWGQGTQVTVSS"
value = "high polyreactivity"

[[record]]
residues = "QVQLVVSGGGLVQPGGSLRLSCAASGRIFGLYAMGWYRQAPGKEREVVAAYADSVKGRFTISRDNAKNTVYLQMNSLKPEDTAVYYCAKGPLYAGYSIDLRDFNYWGQGTQVTVSS"
value = "low polyreactivity"

[[record]]
residues = "QVQLVESGGGLVQAGGSLRLSCAASGSIFVTNAMGWYRQAPGKERELVAAISWRGGSTYYADSVKGRFTISRDNAKNTVYLQMNSLKPEDTGVYDCNTYHPYWGSGFDYWGLGTQVTVSS"
value = "low polyreactivity"

[[record]]
residues = "QVQLVESGGGLVQAGGSLRLSCAASGRILYYYAMGWYRQAPGKERELVAAINSSGGSTYYADSVKGRFTISRDNAKNTVYLQMNSLKPEDTAVYYCAAVRSKLYYYWGQGTQVTVSS"
value = "high polyreactivity"

[[record]]
residues = "QVQLVESGGGLVQAGGSLRLSCAASGSIFAPYTMGWYRQAPGKERELVAAISSSGTSTYYADSVKGRFTISRDNAKNTVYLQMNSLKPEDTAVYYCAADWYYHYGYWGQGTQVTVSS"
value = "high polyreactivity"

[[record]]
residues = "QVQLVESGGGLVQAGGSLRLTCAASGSTFYRNAMGWYRQAPVKERELVATISSSDGSTYYADSVKGRFTISRDNAKNTVYLQMNSLKPEDTAVYYCATEIYYTKTYDSWGQGTQVTVSS"
value = "low polyreactivity"

[[record]]
residues = "QVQHVESGGGLVQAGGSLRISCAASGFISTGNAMGWSRQAPGKERELVAAITTGGSTYYADSVKGRFTISRDNAKNTVYLQMNSLKPEDTAVYYCNAVYVWWDGWGLYYWGQGTQGTVSS"
value = "low polyreactivity"

[[record]]
residues = "QVQLVESGGGLVQAGGSLRLSCAASGRTFDNNAMGWYRQAPGKEREFVAAITTGVGSTYADSVKGRFTISRDNAKNTVYLQMNSLKPEDTAVYYCAADSYWLFDAYDYWGQGTQVTVSS"
value = "low polyreactivity"

[[record]]
residues = "QVQLVESGGGLVQAGGNLRLSCAASGFIFTRYAMGWYRPAPGKERELVAAISTSGDRTYYADSVKGRFTISRDNAKNTVYVQMHSLKPEDTAVYFCAVVRRRSVGRYVYWGQGTQVTVSS"
value = "high polyreactivity"


Note polyreactivity (PSR sort gate) for the sequence shown: QVQLVESGGGLVQAGGSLRLSCAASGSTFAINAMGWYRQAPGKERELVAAITSGGGTNYADSVKGRFTISRDNAKNTVFLQMISLKPEDTAVYYCYGRVYWYYPMDYWGQGTQVTVSS
low polyreactivity

Note polyreactivity (PSR sort gate) for the sequence shown: QVQLVESGGGLVQAGGRLRLSCAASGRTFTVYAMGWYRQAPGKEREFVAAITERGGSTYYADSVKGRFTISRDNAKNTVYLKMNSLKPEDTSVYYFAAVFYWRPGWYVRFDYWGQGTQVTVSS
low polyreactivity

Note polyreactivity (PSR sort gate) for the sequence shown: QDQLVDSGGGLVQAGGSLRLSCAASGYIFDRYAMGWYRQEPGKERELVAAISGRGGSTYYADSVKGRFTISRDNAKNTVYLQMYSLKREDTAVYYCARDVYVRNGQRARFDSWGQGTQVTVSS
high polyreactivity

Note polyreactivity (PSR sort gate) for the sequence shown: QVQLVESGGGLVQAGGSLRLSCAASGFIFSPNAMGWYRQAPGKEREFVAAIRYSGTSTSYADSVKGRFTISRDNAKNTVYLQMNSLKPEDTAVYYCAAGRSNSYSPRRRVTYGYNYWGQGTQVTVSS
high polyreactivity

Note polyreactivity (PSR sort gate) for the sequence shown: QVQLVESGGGLVQAGGSLRLSCAASGIIFSEYAMGWSRQAPGKERELVAAITKSGGSTYYADSVKGRFTISRDNAKNTVYLQMNSLKPEDTAVYYCAKKTPYIRGKDNYWGQGTQVNVSS
low polyreactivity

Note polyreactivity (PSR sort gate) for the sequence shown: QVQHVESGGGLVQAGGSLRLSCAASGFIFRSYAMGWFRQAPGKERELVAAISNGVITNYADSVKGRFTISRDNSKNTVYLQRNSLKPEDTAVYYCDADYNSQDDYWGQGTQVTVSS
low polyreactivity

Note polyreactivity (PSR sort gate) for the sequence shown: QVQLVESGGGLVQAGGSLRLSCAASGSTFVVNAMGWYRQAPGKERELVAAIRSGSSTNYADSVKGRFTISRDNAKNTVYLQMNSLKPEDTAVYYCAARSKYTHSRQSDYWGQGTQVTVSS
low polyreactivity

Note polyreactivity (PSR sort gate) for the sequence shown: QVNLVESGGVSVQAGGSLRLSCAASGLIFDKYAMGWYRQAPGKERELVAAITRSSGTTYYADSVKGRFTISRDNAKNTVYLLLISVTPEDTAVYYCPAPFIWGYWGVGYYYWGQGTHVTVSS
low polyreactivity

Note polyreactivity (PSR sort gate) for the sequence shown: QVQLVESGGGLVQAGGSLRLSCAASGITFYLYDMGWYRQAPGKERELVASITSDGSTDYADSVKGRFTISRDNAKNTVYLQMNSLKPEDTAVYYCNARVTYAWYRFGRSGDDSWGQGTQVTVSS
low polyreactivity

Note polyreactivity (PSR sort gate) for the sequence shown: QVQLVESGGGLVQAGGSLRLSCAASGSTFGYNAMGWYRQAPGKERELVAAINFRSDRTFYADSVKGRFTISRDNAKNTVYLQMNSLKPEDTAVYYCAAKPTTYYGNSDYWGQGTQVTVSS
high polyreactivity

Note polyreactivity (PSR sort gate) for the sequence shown: QVQLVESGGGLVQAGGSLSLSCAASGITFVWYALGWYRQAPGTERELVAAISRGGSTYYADSVKGRFTISRDNAKNTVYLQMNSLKPEDTAVYYCNAESAARSTVQQARGYYWGQGTQVTVSS
high polyreactivity
